Tested on: Plasmodium berghei
Assay: Antimalarial activity against Plasmodium berghei ANKA infected in C57BL/6J mouse assessed as increase of host survival days at 5 mg/kg, po administered after 24 hrs post infection in presence of 15 mg/kg of mefloquine hydrochloride (reference value: 6.5 days)
Type: functional
Mark class 1 for reported Survival of 20 days or greater; mark class 0 for anything smaller.

# Item smiles, Assigned category
data = [
    ("C[C@H]1[C@@H]([C@H](C[C@H]2O[C@@H]3O[C@@]4(C)CC[C@H]5[C@H](C)CC[C@@H]([C@H]2C)[C@@]35OO4)OC(=O)Nc2ccccc2)O[C@@H]2O[C@@]3(C)CC[C@H]4[C@H](C)CC[C@@H]1[C@@]24OO3", "class 0"),
    ("C[C@H]1[C@@H]([C@H](C[C@H]2O[C@@H]3O[C@@]4(C)CC[C@H]5[C@H](C)CC[C@@H]([C@H]2C)[C@@]35OO4)OC(=O)Nc2ccc(Cl)cc2)O[C@@H]2O[C@@]3(C)CC[C@H]4[C@H](C)CC[C@@H]1[C@@]24OO3", "class 0"),
    ("Cc1cc(NC(=O)O[C@@H](C[C@H]2O[C@@H]3O[C@@]4(C)CC[C@H]5[C@H](C)CC[C@@H]([C@H]2C)[C@@]35OO4)[C@H]2O[C@@H]3O[C@@]4(C)CC[C@H]5[C@H](C)CC[C@@H]([C@H]2C)[C@@]35OO4)ccc1F", "class 0"),
    ("C[C@H]1[C@@H]([C@H](C[C@H]2O[C@@H]3O[C@@]4(C)CC[C@H]5[C@H](C)CC[C@@H]([C@H]2C)[C@@]35OO4)OC(=O)Nc2ccc(C(F)(F)F)cc2)O[C@@H]2O[C@@]3(C)CC[C@H]4[C@H](C)CC[C@@H]1[C@@]24OO3", "class 0"),
    ("C[C@H]1[C@@H]([C@H](C[C@H]2O[C@@H]3O[C@@]4(C)CC[C@H]5[C@H](C)CC[C@@H]([C@H]2C)[C@@]35OO4)OC(=O)Nc2ccc(F)c(Cl)c2)O[C@@H]2O[C@@]3(C)CC[C@H]4[C@H](C)CC[C@@H]1[C@@]24OO3", "class 1"),
    ("C[C@H]1[C@@H]([C@H](C[C@H]2O[C@@H]3O[C@@]4(C)CC[C@H]5[C@H](C)CC[C@@H]([C@H]2C)[C@@]35OO4)OC(=O)Nc2cc(F)cc(F)c2)O[C@@H]2O[C@@]3(C)CC[C@H]4[C@H](C)CC[C@@H]1[C@@]24OO3", "class 1"),
    ("C[C@H]1[C@@H]([C@H](C[C@H]2O[C@@H]3O[C@@]4(C)CC[C@H]5[C@H](C)CC[C@@H]([C@H]2C)[C@@]35OO4)OC(=O)Nc2ccc(F)cc2)O[C@@H]2O[C@@]3(C)CC[C@H]4[C@H](C)CC[C@@H]1[C@@]24OO3", "class 0"),
]

* * *

Tested on: Plasmodium berghei
Experiment: Antimalarial activity against Plasmodium berghei ANKA infected in C57BL/6J mouse assessed as increase of host survival days at 5 mg/kg, po administered after 24 hrs post infection in presence of 15 mg/kg of mefloquine hydrochloride (reference value: 6.5 days)
Format: functional
Mark condition met for reported Survival of 20 days or greater; mark condition not met for anything smaller.

# Item smiles, Assigned category
data = [
    ("C[C@H]1[C@@H]([C@H](C[C@H]2O[C@@H]3O[C@@]4(C)CC[C@H]5[C@H](C)CC[C@@H]([C@H]2C)[C@@]35OO4)OC(=O)Nc2ccc(F)c(F)c2)O[C@@H]2O[C@@]3(C)CC[C@H]4[C@H](C)CC[C@@H]1[C@@]24OO3", "condition met"),
    ("C[C@H]1[C@@H]([C@H](C[C@H]2O[C@@H]3O[C@@]4(C)CC[C@H]5[C@H](C)CC[C@@H]([C@H]2C)[C@@]35OO4)OC(=O)Nc2ccc(C#N)cc2)O[C@@H]2O[C@@]3(C)CC[C@H]4[C@H](C)CC[C@@H]1[C@@]24OO3", "condition not met"),
    ("C[C@H]1[C@@H]([C@@H](O)C[C@H]2O[C@@H]3O[C@@]4(C)CC[C@H]5[C@H](C)CC[C@@H]([C@H]2C)[C@@]35OO4)O[C@@H]2O[C@@]3(C)CC[C@H]4[C@H](C)CC[C@@H]1[C@@]24OO3", "condition met"),
    ("C[C@H]1[C@@H]([C@H](C[C@H]2O[C@@H]3O[C@@]4(C)CC[C@H]5[C@H](C)CC[C@@H]([C@H]2C)[C@@]35OO4)OC(=O)Nc2cccc(Cl)c2)O[C@@H]2O[C@@]3(C)CC[C@H]4[C@H](C)CC[C@@H]1[C@@]24OO3", "condition met"),
    ("C[C@H]1[C@@H]([C@H](O)C[C@H]2O[C@@H]3O[C@@]4(C)CC[C@H]5[C@H](C)CC[C@@H]([C@H]2C)[C@@]35OO4)O[C@@H]2O[C@@]3(C)CC[C@H]4[C@H](C)CC[C@@H]1[C@@]24OO3", "condition met"),
    ("C[C@H]1[C@@H]([C@H](C[C@H]2O[C@@H]3O[C@@]4(C)CC[C@H]5[C@H](C)CC[C@@H]([C@H]2C)[C@@]35OO4)OC(=O)Nc2ccc(Br)cc2)O[C@@H]2O[C@@]3(C)CC[C@H]4[C@H](C)CC[C@@H]1[C@@]24OO3", "condition not met"),
    ("C[C@H]1[C@@H]([C@H](C[C@H]2O[C@@H]3O[C@@]4(C)CC[C@H]5[C@H](C)CC[C@@H]([C@H]2C)[C@@]35OO4)OC(=O)Nc2cccc(C(F)(F)F)c2)O[C@@H]2O[C@@]3(C)CC[C@H]4[C@H](C)CC[C@@H]1[C@@]24OO3", "condition not met"),
    ("C[C@H]1[C@@H]([C@H](C[C@H]2O[C@@H]3O[C@@]4(C)CC[C@H]5[C@H](C)CC[C@@H]([C@H]2C)[C@@]35OO4)OC(=O)Nc2ccc([N+](=O)[O-])cc2)O[C@@H]2O[C@@]3(C)CC[C@H]4[C@H](C)CC[C@@H]1[C@@]24OO3", "condition met"),
]
